MEASURE: melting point

SMILES RECORD	MEASURE	RESULT
CCOc1ccc(-c2cc(=O)c3cc(N4CCNCC4)ccc3o2)cc1	melting point	180 to 182 °C
COc1ccc(-c2cc(=O)c3cc(N4CCN[C@H](C)C4)ccc3o2)cc1Cl	melting point	170 to 172 °C
C[C@@H]1CN(c2ccc3oc(-c4cn5ccccc5n4)cc(=O)c3c2)C[C@H](C)N1	melting point	208 to 210 °C
C[C@H]1CN(c2ccc3oc(-c4cccc(C(F)(F)F)c4)cc(=O)c3c2)CCN1	melting point	150 to 152 °C
C[C@H]1CN(c2ccc3oc(-c4cc(F)cc(F)c4)cc(=O)c3c2)CCN1	melting point	175 to 178 °C
O=c1cc(-c2cccnc2)oc2ccc(N3CCCNCC3)cc12	melting point	162 to 164 °C
O=c1cc(-c2ccc(OC(F)(F)F)cc2)oc2ccc(N3CCNCC3)cc12	melting point	146 to 148 °C
C[C@H]1CN(c2ccc3oc(-c4cncc(F)c4)cc(=O)c3c2)CCN1	melting point	168 to 172 °C
COc1ccc(-c2cc(=O)c3cc(N4CCNCC4)ccc3o2)cc1Cl	melting point	145 to 150 °C

----------
Reported values of melting point for individual entries

SMILES RECORD	melting point
CCOc1ccc(-c2cc(=O)c3cc(N4CCN[C@@H](C)C4)ccc3o2)cc1	93 to 94 °C
COc1ccc(-c2cc(=O)c3cc(N4CCNC(C)(C)C4)ccc3o2)cc1OC	108 to 110 °C
Cc1ccn2cc(-c3cc(=O)c4cc(N5CCNCC5)ccc4o3)nc2c1	228 to 232 °C
COc1ccc(-c2cc(=O)c3cc(N4CCN[C@@H](C)C4)ccc3o2)cc1	155 to 160 °C
COc1ccc(-c2cc(=O)c3cc(N4C[C@@H](C)N[C@@H](C)C4)ccc3o2)cc1Cl	176 to 178 °C
CN1CCN(c2ccc3oc(-c4nc5ccccc5s4)cc(=O)c3c2)CC1	215 to 220 °C
C[C@H]1CN(c2ccc3oc(-c4ccc(OC(F)(F)F)cc4)cc(=O)c3c2)CCN1	138 to 140 °C
O=c1cc(-c2ccccn2)oc2ccc(N3CCNCC3)cc12	170 to 172 °C
COc1ccc(-c2cc(=O)c3cc(N4CCNCC4)ccc3o2)cc1F	178 to 180 °C

----------
SMILES RECORD	melting point
COc1ccc(-c2cc(=O)c3cc(N4CCN[C@H](C)C4)ccc3o2)cc1F	110 to 112 °C
COc1ccc(-c2cc(=O)c3cc(N4CCNCC4)ccc3o2)cc1C(F)(F)F	128 to 132 °C
COc1cc(F)c(-c2cc(=O)c3cc(N4CCNCC4)ccc3o2)cc1OC	130 to 132 °C
COc1ccc(-c2cc(=O)c3cc(N4CCNCC4)ccc3o2)cc1	166 to 170 °C
C[C@@H]1CN(c2ccc3oc(-c4cccnc4)cc(=O)c3c2)CCN1	148 to 150 °C
O=c1cc(-c2ccccn2)oc2ccc(N3CCCNCC3)cc12	170 to 172 °C
C[C@H]1CN(c2ccc3oc(-c4cccc(F)c4)cc(=O)c3c2)CCN1	170 to 172 °C
COc1ccc(-c2cc(=O)c3cc(N4CCN[C@@H](C)C4)ccc3o2)cc1C(F)(F)F	182 to 184 °C
CC(C)Oc1ccc(-c2cc(=O)c3cc(N4CCNCC4)ccc3o2)cc1	126 to 128 °C

----------
Measured melting point by item
MEASURE: melting point

SMILES RECORD	RESULT
O=c1cc(-c2cc(F)cc(F)c2)oc2ccc(N3CCNCC3)cc12	180 to 190 °C
COc1ccc(-c2cc(=O)c3cc(N4CCNCC4)ccc3o2)cn1	165 to 170 °C
C[C@@H]1CN(c2ccc3oc(-c4ccccn4)cc(=O)c3c2)CCN1	140 to 142 °C
COc1ccc(-c2cc(=O)c3cc(N4CCCNCC4)ccc3o2)cc1OC	152 to 154 °C
COc1ccc(-c2cc(=O)c3cc(N4CCCN(C)CC4)ccc3o2)cc1OC	106 to 108 °C
Cc1ccn2cc(-c3cc(=O)c4cc(N5CCN[C@H](C)C5)ccc4o3)nc2c1	150 to 155 °C
Cc1ccn2cc(-c3cc(=O)c4cc(N5C[C@@H](C)N[C@@H](C)C5)ccc4o3)nc2c1	102 to 104 °C
C[C@@H]1CN(c2ccc3oc(-c4nc5ccccc5s4)cc(=O)c3c2)CCN1	142 to 144 °C
COc1ccc(-c2cc(=O)c3cc(N4CCNCC4)ccc3o2)cc1C	98 to 100 °C

----------
Item-by-item account of melting point
MEASURE: melting point

SMILES RECORD	RESULT
COc1ccc(-c2cc(=O)c3cc(N4CCNCC4)ccc3o2)cc1OC	177 to 179 °C
CC1(C)CN(c2ccc3oc(-c4cccnc4)cc(=O)c3c2)CCN1	140 to 142 °C
C[C@@H]1CN(c2ccc3oc(-c4ccccn4)cc(=O)c3c2)C[C@H](C)N1	166 to 168 °C
COc1ccc(-c2cc(=O)c3cc(N4C[C@@H](C)N[C@@H](C)C4)ccc3o2)cc1C	186 to 188 °C
COc1ccc(-c2cc(=O)c3cc(N4C[C@@H](C)N[C@@H](C)C4)ccc3o2)cc1OC	206 to 208 °C
COc1ccc(-c2cc(=O)c3cc(N4CCN[C@@H](C)C4)ccc3o2)cc1C	174 to 176 °C
COc1ccc(-c2cc(=O)c3cc(N4CCN[C@@H](C)C4)ccc3o2)cc1F	100 to 102 °C
O=c1cc(-c2nc3ccccc3s2)oc2ccc(N3CCNCC3)cc12	250 to 254 °C
CCOc1ccc(-c2cc(=O)c3cc(N4CCN[C@H](C)C4)ccc3o2)cc1	92 to 94 °C
C[C@@H]1CN(c2ccc3oc(-c4nc5ccccc5s4)cc(=O)c3c2)C[C@H](C)N1	200 to 202 °C
COc1cc(F)c(-c2cc(=O)c3cc(N4CCN[C@H](C)C4)ccc3o2)cc1OC	180 to 182 °C
COc1ccc(-c2cc(=O)c3cc(N4CCN[C@@H](C)C4)ccc3o2)cc1OC	172 to 174 °C
COc1ccc(-c2cc(=O)c3cc(N4CCN[C@H](C)C4)ccc3o2)cc1OC	181 to 183 °C
O=c1cc(-c2cncc(F)c2)oc2ccc(N3CCNCC3)cc12	182 to 184 °C
COc1ccc(-c2cc(=O)c3cc(N4C[C@@H](C)N[C@@H](C)C4)ccc3o2)cc1F	180 to 182 °C
O=c1cc(-c2cccc(F)c2)oc2ccc(N3CCNCC3)cc12	150 to 152 °C
COc1cc(F)c(-c2cc(=O)c3cc(N4C[C@@H](C)N[C@@H](C)C4)ccc3o2)cc1OC	164 to 166 °C
COc1ccc(-c2cc(=O)c3cc(N4CCN[C@@H](C)C4)ccc3o2)cc1Cl	172 to 174 °C

----------
- System: Smn protein
- METHOD DESCRIPTION: Smn protein assay (Smn HTRF) in cultured cells
- Assay type: cell-based, human
- PROTOCOL CONDITIONS: Homo sapiens, Fibroblast; GM03813 SMA Type 1 patient fibroblasts, 48 hours, HTRF; concentration producing 1.5 times Smn protein vs DMSO vehicle; read-out: EC1.5x for Smn protein expression
Recorded measurements of EC (1.5-fold), one per entry

SMILES RECORD	EC (1.5-fold)
COc1ccc(-c2cc(=O)c3cc(N4C[C@@H](C)N[C@@H](C)C4)ccc3o2)cc1Cl	1 to 3 µM
COc1ccc(-c2cc(=O)c3cc(N4CCNC(C)(C)C4)ccc3o2)cc1OC	1 to 3 µM
C[C@H]1CN(c2ccc3oc(-c4nc5ccccc5s4)cc(=O)c3c2)CCN1	1 to 3 µM
COc1ccc(-c2cc(=O)c3cc(N4CCN[C@@H](C)C4)ccc3o2)cc1C(F)(F)F	3 to 10 µM
CCN1CCN(c2ccc3oc(-c4ccc(OC)c(OC)c4)cc(=O)c3c2)CC1	1 to 3 µM
Cc1ccn2cc(-c3cc(=O)c4cc(N5CCNCC5)ccc4o3)nc2c1	3 to 10 µM
C[C@H]1CN(c2ccc3oc(-c4cncc(F)c4)cc(=O)c3c2)CCN1	1 to 3 µM
C[C@@H]1CN(c2ccc3oc(-c4cccnc4)cc(=O)c3c2)C[C@H](C)N1	3 to 10 µM
O=c1cc(-c2cn3ccccc3n2)oc2ccc(N3CCCNCC3)cc12	3 to 10 µM
Cc1ccn2cc(-c3cc(=O)c4cc(N5CCN[C@H](C)C5)ccc4o3)nc2c1	3 to 10 µM
COc1ccc(-c2cc(=O)c3cc(N4CCN[C@H](C)C4)ccc3o2)cc1OC	0.3 to 1 µM
COc1ccc(-c2cc(=O)c3cc(N4CCN[C@@H](C)C4)ccc3o2)cc1Cl	≤ 0.3 µM
O=c1cc(-c2ccccn2)oc2ccc(N3CCNCC3)cc12	3 to 10 µM
COc1cc(F)c(-c2cc(=O)c3cc(N4C[C@@H](C)N[C@@H](C)C4)ccc3o2)cc1OC	1 to 3 µM
C[C@@H]1CN(c2ccc3oc(-c4ccccn4)cc(=O)c3c2)CCN1	3 to 10 µM
O=c1cc(-c2cncc(F)c2)oc2ccc(N3CCNCC3)cc12	1 to 3 µM
Cc1cn2cc(-c3cc(=O)c4cc(N5CCNCC5)ccc4o3)nc2cn1	≤ 0.3 µM
O=c1cc(-c2cn3ccccc3n2)oc2ccc(N3CCNCC3)cc12	3 to 10 µM
COc1ccc(-c2cc(=O)c3cc(N4C[C@@H](C)N[C@@H](C)C4)ccc3o2)cc1F	3 to 10 µM
COc1cc(F)c(-c2cc(=O)c3cc(N4CCN[C@H](C)C4)ccc3o2)cc1OC	1 to 3 µM
COc1ccc(-c2cc(=O)c3cc(N4CCN(C)CC4)ccc3o2)cc1OC	1 to 3 µM
C[C@@H]1CN(c2ccc3oc(-c4cn5ccccc5n4)cc(=O)c3c2)C[C@H](C)N1	1 to 3 µM
COc1cc(F)c(-c2cc(=O)c3cc(N4CCN[C@@H](C)C4)ccc3o2)cc1OC	1 to 3 µM
C[C@@H]1CN(c2ccc3oc(-c4cccnc4)cc(=O)c3c2)CCN1	3 to 10 µM
C[C@H]1CN(c2ccc3oc(-c4cccc(C(F)(F)F)c4)cc(=O)c3c2)CCN1	≤ 0.3 µM
C[C@H]1CN(c2ccc3oc(-c4cc(F)cc(F)c4)cc(=O)c3c2)CCN1	0.3 to 1 µM
COc1ccc(-c2cc(=O)c3cc(N4CCN[C@@H](C)C4)ccc3o2)cc1	0.3 to 1 µM
COc1ccc(-c2cc(=O)c3cc(N4CCN[C@@H](C)C4)ccc3o2)cc1OC	≤ 0.3 µM
COc1ccc(-c2cc(=O)c3cc(N4CCN[C@H](C)C4)ccc3o2)cc1F	1 to 3 µM
COc1ccc(-c2cc(=O)c3cc(N4CCNCC4)ccc3o2)cc1Cl	1 to 3 µM
O=c1cc(-c2cccc(C(F)(F)F)c2)oc2ccc(N3CCNCC3)cc12	0.3 to 1 µM
COc1ccc(-c2cc(=O)c3cc(N4CCN[C@@H](C)C4)ccc3o2)cc1F	0.3 to 1 µM
COc1ccc(-c2cc(=O)c3cc(N4CCNCC4)ccc3o2)cc1F	1 to 3 µM
CN1CCCN(c2ccc3oc(-c4cn5ccccc5n4)cc(=O)c3c2)CC1	1 to 3 µM
O=c1cc(-c2cc(F)cc(F)c2)oc2ccc(N3CCNCC3)cc12	3 to 10 µM
C[C@@H]1CN(c2ccc3oc(-c4cn5ccccc5n4)cc(=O)c3c2)CCN1	1 to 3 µM
COc1ccc(-c2cc(=O)c3cc(N4CCNCC4)ccc3o2)cc1OC	0.3 to 1 µM
